# system name: T1, human PVRIG on cells (human, UniProt Q6DKI7 1-326)
# T1 construct: whole, on cells; over-expressed on HEK cells or endogenous on Jurkat and CD8 T cells; also called hPVRIG; HEK hPVRIG cells
# T1 sequence (looked up): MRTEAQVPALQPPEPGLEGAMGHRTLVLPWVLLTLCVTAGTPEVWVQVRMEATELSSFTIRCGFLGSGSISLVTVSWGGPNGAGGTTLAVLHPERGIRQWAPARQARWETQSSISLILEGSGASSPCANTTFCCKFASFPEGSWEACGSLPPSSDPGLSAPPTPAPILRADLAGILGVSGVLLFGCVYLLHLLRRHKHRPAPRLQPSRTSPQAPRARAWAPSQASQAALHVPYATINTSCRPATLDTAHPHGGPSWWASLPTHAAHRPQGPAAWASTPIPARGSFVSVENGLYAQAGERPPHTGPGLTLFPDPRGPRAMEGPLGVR
# test details: FACS, human PBMC, CD56 int. NK cells, 10ug/ml
reported property: gMFIr Human CD56 int. NK

Ask | Look up and state reported gMFIr Human CD56 int. NK for CHA.7.544 (antibody, V domains shown) VH: QVQLKESGPGLVAPSQSLSITCTVSGFSLTSYAITWVRQPPGKGLEWLGVIWPGGGTNYNSALKSRLSISKDNSKSHLFLKMNSLQTDDTARYYCVRSYDGYLDWYFDVWGTGTTVTVSS VL: NIVMTQSPKSMSMSVGERVTLSCKASENVGTYVSWYQQKPDQSPKLLIYGASNRYTGVPDRFTGSGSATDFTLIISSVQAEDLSDYHCGQSYSYPYTFGGGTKLEII
Reply | 2.36

Ask | Look up and state reported gMFIr Human CD56 int. NK for CHA.7.549 (antibody, V domains shown) VH: QVQLQQPGTELVKPGASVKLSCKASGFTFTTHWMHWVRQRPGQGLEWIGNIYPSNGGSNYNEKFKTKATLTVDRSSSTAYMHLSSLTSEDSAVYYCARRVNWDGYYFDYWGQGTTLTVSS VL: DIVMTQSQKFMSTSVGDRVSVTCKASQNVGTNVAWYQQKPGQSPKLLIYSASYRYSGVPDRFTGSGSGTDFTLTISNVQSEDLADYFCQQYNSYPLTFGGGTKLEIK
Reply | 3.05

Ask | Look up and state reported gMFIr Human CD56 int. NK for CHA.7.543 (antibody, V domains shown) VH: QVQLKESGPGLVAPSQSLSITCTVSGFSLSGYGIKWVRQPPGKGLEWLGTIWGDGSTDYNSALKSRLSISKDNSKSQVFLKMTSLQTDDTARYYCASDSLGITFGYWGQGTLVTVSA VL: DIQMTQTTSSLSASLGDRVTISCRASQDISNYLNWYQQKPDGTVKLLIYYTSRLHSGVPSRFSGSGSGTDYSLTISNLEQEDIATYFCQQGNTLPLTFGAGTKLELK
Reply | 4.48
